measurementDescription: Efflux ratio of apparent permeability across basolateral to apical side over apical to basolateral side in human Caco2 cells by LC-MS/MS analysis
Type: ADME, cell-based
conditionNotes: Caco-2
recordedMetric: efflux ratio

INSERT INTO assay_data (moleculesmiles, recordedmetric, result) VALUES
  ('Cc1ccc(C(=O)Nc2cccc(-c3nncn3C(C)C)n2)cc1-n1cnc(C2CC2)c1', 'efflux ratio', 15.4);

###

measurementDescription: Oral bioavailability in Sprague-Dawley rat at 1 mg/kg by LC-MS/MS analysis
Format: ADME, organism-based
conditionNotes: in vivo
recordedMetric: bioavailability (%)

INSERT INTO results (moleculesmiles, number) VALUES
  ('Cc1cc(F)c(C(=O)Nc2cccc(-c3nncn3C(C)C)n2)cc1-n1cnc(C2CC2)c1', 75),
  ('CC(C)n1cnnc1-c1cccc(NC(=O)c2cccc(-n3cnc(C4CC4)c3)c2)n1', 11),
  ('Cc1ccc(C(=O)Nc2cccc(-c3nncn3C(C)C)n2)cc1-n1cnc(C2CC2)c1', 50);
